- EXPERIMENT: Time course of technetium-99m labeling yield in vitro (HPLC)
- Type: physicochemical
- CONDITION DESCRIPTION: 3 hr. standing after labeling
ENDPOINT NAME: technetium-99m labeling yield

Please fill in: technetium-99m labeling yield reported for YCAREPPTRTFAYWG [peptide-3, peptide without N-terminal Lys, used for comparison] = below 95%

Please fill in: technetium-99m labeling yield reported for YCAREPPTRTNAYWG [peptide-2, conventional peptide without N-terminal Lys, used for comparison] = below 95%

Please fill in: technetium-99m labeling yield reported for KYCAREPPTRTFAYWGQG [peptide-1] = 97.2%

Please fill in: technetium-99m labeling yield reported for YCAREPPTRTFAYWGQG [peptide-4] = below 95%

---

- EXPERIMENT: Time course of technetium-99m labeling yield in vitro (HPLC)
- Format: physicochemical
- CONDITION DESCRIPTION: 6 hr. standing after labeling
ENDPOINT NAME: technetium-99m labeling yield (%)
The answer is to be given in %; state only the numeric part.

These solved cases illustrate the format of a correct answer.
Please fill in: technetium-99m labeling yield reported for YCAREPPTRTNAYWG [peptide-2, conventional peptide without N-terminal Lys, used for comparison] = 78.5

Please fill in: technetium-99m labeling yield reported for YCAREPPTRTFAYWG [peptide-3, peptide without N-terminal Lys, used for comparison] = 84.4

Next sequence, technetium-99m labeling yield to be filled in.
Please fill in: technetium-99m labeling yield reported for YCAREPPTRTFAYWGQG [peptide-4] = 79.9

---

Quick reference for technetium-99m labeling yield among some sequences
- EXPERIMENT: Time course of technetium-99m labeling yield in vitro (HPLC)
- Type: physicochemical
- CONDITION DESCRIPTION: 1 hr. standing after labeling
The answer is to be given in %; state only the numeric part.

These solved cases illustrate the format of a correct answer.
Please fill in: technetium-99m labeling yield reported for YCAREPPTRTFAYWG [peptide-3, peptide without N-terminal Lys, used for comparison] = 96.3

Please fill in: technetium-99m labeling yield reported for YCAREPPTRTNAYWG [peptide-2, conventional peptide without N-terminal Lys, used for comparison] = 85.5

Next sequence, technetium-99m labeling yield to be filled in.
Please fill in: technetium-99m labeling yield reported for YCAREPPTRTFAYWGQG [peptide-4] = 81.5
